TEST_METHOD_NOTES: MRT(0 to t) in Sprague-Dawley rat at 1 mg/kg,iv measured upto 24 hrs by LC-MS/MS analysis
Format: ADME, organism-based
TEST_SETTINGS: in vivo
MEASURED_PARAMETER: MRT last at 24 h (h)
Express it in h; write the number only.

# lookup: MRT last at 24 h of Cc1c(C(C#N)c2c(F)cccc2F)nc(SC(C)C)[nH]c1=O (stereo unspecified)
2.25

----------
TEST_METHOD_NOTES: Selectivity index, ratio of CC50 for human MT4 cells to EC50 for antiviral activity against NNRTI resistant HIV-1 infected in human MT4 cells
Format: toxicity, cell-based
TEST_SETTINGS: read-out: Ratio CC50/EC50
MEASURED_PARAMETER: selectivity ratio
Lab note: write the figure by itself, no unit.

The examples below pair each entry with its known result.
Cc1c(C(C#N)c2ccccc2F)nc(SC(C)C)[nH]c1=O (stereo not drawn)    2030
Cc1c(C(C#N)c2cc(Cl)cc(C(F)(F)F)c2)nc(SC(C)C)[nH]c1=O (stereo not drawn)    6
Cc1c(C(C#N)c2c(Cl)cccc2Cl)nc(SC(C)C)[nH]c1=O (stereo not drawn)    749
Cc1c(C(C#N)c2c(F)cccc2F)nc(SC(C)C)[nH]c1=O (stereo not drawn)    6560
Cc1c(C(C#N)c2cc(F)cc(F)c2)nc(SC(C)C)[nH]c1=O (stereo not drawn)    394

Please examine the following record next.
Need selectivity ratio, item Cc1ccc(C(C#N)c2nc(SC(C)C)[nH]c(=O)c2C)cc1 (stereo not drawn)
40

----------
# EC50 values compiled below
Test system: Human immunodeficiency virus 1
TEST_METHOD_NOTES: Antiviral activity against drug-resistant HIV-1 Y188L mutant infected in human MT4 cells assessed as reduction in virus-induced cytopathic effect incubated for 5 days by MTT assay
Type: functional, organism-based
TEST_SETTINGS: Human immunodeficiency virus 1, Y188L mutant, MT4, 120 h

Solved entries:
Cc1c(C(C#N)c2c(Cl)cccc2Cl)nc(SC(C)C)[nH]c1=O (stereo not drawn)    > 62.2 µM
Cc1c(C(C#N)c2cccc(Cl)c2)nc(SC(C)C)[nH]c1=O (stereo not drawn)    > 69.7 µM
Cc1cc(C)cc(C(C#N)c2nc(SC(C)C)[nH]c(=O)c2C)c1 (stereo not drawn)    55.5 µM
Cc1cn([C@H]2C[C@H](N=[N+]=[N-])[C@@H](CO)O2)c(=O)[nH]c1=O    0.0108 µM
Cc1c(C(C#N)c2ccccc2F)nc(SC(C)C)[nH]c1=O (stereo not drawn)    > 113 µM
Cc1c(C(C#N)c2c(F)cccc2Cl)nc(SC(C)C)[nH]c1=O (stereo not drawn)    > 58.7 µM
COc1cccc(C(C#N)c2nc(SC(C)C)[nH]c(=O)c2C)c1 (stereo not drawn)    62 µM
COc1ccc(C(C#N)c2nc(SC(C)C)[nH]c(=O)c2C)cc1 (stereo not drawn)    > 37.1 µM

What measured EC50 is associated with Cc1c(C(C#N)c2ccccc2)nc(SC(C)C)[nH]c1=O (stereo not drawn) on Human immunodeficiency virus 1?
> 204 µM

Same read-out for Cc1c(C(C#N)c2ccc(Cl)nc2)nc(SC(C)C)[nH]c1=O (stereo not drawn) ?
> 216 µM

Cool, now Cc1c(C(C#N)c2ccc(C(C)C)cc2)nc(SC(C)C)[nH]c1=O (stereo not drawn)
> 225 µM

Now the same for Cc1c(C(C#N)c2ccc(Cl)cc2)nc(SC(C)C)[nH]c1=O (stereo not drawn)
> 70.2 µM

What would you report for Cc1c(C(C#N)c2cccc(C(F)(F)F)c2)nc(SC(C)C)[nH]c1=O (stereo not drawn) ?
> 69.2 µM

----------
EXPERIMENTAL_SYSTEM: UniProtKB P10635
Sequence (P10635 whole entry): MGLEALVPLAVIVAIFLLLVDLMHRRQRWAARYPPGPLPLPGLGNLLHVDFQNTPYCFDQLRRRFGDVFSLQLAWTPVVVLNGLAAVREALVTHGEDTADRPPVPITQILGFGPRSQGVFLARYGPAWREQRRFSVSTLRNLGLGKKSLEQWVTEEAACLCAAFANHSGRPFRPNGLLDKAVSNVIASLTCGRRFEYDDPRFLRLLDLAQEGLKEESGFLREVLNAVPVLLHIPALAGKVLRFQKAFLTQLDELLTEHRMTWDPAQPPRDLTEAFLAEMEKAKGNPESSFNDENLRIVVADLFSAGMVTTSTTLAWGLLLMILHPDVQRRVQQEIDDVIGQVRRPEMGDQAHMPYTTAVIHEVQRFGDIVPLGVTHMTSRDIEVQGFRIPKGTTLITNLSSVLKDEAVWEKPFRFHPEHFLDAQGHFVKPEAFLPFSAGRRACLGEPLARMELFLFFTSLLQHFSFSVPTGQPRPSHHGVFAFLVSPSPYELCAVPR
TEST_METHOD_NOTES: Inhibition of CYP2D6 in human liver microsomes incubated for 15 to 40 mins in presence of NADPH
Format: ADME, Microsome
MEASURED_PARAMETER: IC50 (nM)
Give the quantity in nM, number only.

What IC50 value was documented for this compound, COc1ccc2c(c1)[C@]13CCCC[C@@H]1[C@H](C2)N(C)CC3 [DEXTROMETHORPHAN] ?
40.8

----------
EXPERIMENTAL_SYSTEM: Cytochrome P450 2C9 (Homo sapiens, UniProt P11712)
Sequence (P11712 whole entry): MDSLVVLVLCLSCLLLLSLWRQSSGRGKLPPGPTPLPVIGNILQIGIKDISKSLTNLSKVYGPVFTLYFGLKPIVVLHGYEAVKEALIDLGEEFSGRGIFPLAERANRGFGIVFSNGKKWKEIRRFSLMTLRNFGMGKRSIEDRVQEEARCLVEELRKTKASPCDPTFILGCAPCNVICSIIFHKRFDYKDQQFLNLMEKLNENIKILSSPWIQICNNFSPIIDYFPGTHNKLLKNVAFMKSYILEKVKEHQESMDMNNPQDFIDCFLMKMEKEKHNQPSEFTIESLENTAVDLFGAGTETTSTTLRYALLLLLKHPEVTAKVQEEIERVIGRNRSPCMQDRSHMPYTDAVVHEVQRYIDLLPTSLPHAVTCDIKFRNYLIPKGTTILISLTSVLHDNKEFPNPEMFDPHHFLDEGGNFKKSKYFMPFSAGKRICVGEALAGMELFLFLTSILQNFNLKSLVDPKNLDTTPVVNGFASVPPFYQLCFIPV
MEASURED_PARAMETER: pIC50
Give only the number. pIC50 is defined as minus log10 of concentration in molar units.

Fill in: pIC50 of Cc1c(C(C#N)c2c(F)cccc2F)nc(SC(C)C)[nH]c1=O (stereo unspecified) is ___
4.39

----------
EXPERIMENTAL_SYSTEM: Cytochrome P450 3A4 (Homo sapiens, UniProt P08684)
Sequence (P08684 whole entry): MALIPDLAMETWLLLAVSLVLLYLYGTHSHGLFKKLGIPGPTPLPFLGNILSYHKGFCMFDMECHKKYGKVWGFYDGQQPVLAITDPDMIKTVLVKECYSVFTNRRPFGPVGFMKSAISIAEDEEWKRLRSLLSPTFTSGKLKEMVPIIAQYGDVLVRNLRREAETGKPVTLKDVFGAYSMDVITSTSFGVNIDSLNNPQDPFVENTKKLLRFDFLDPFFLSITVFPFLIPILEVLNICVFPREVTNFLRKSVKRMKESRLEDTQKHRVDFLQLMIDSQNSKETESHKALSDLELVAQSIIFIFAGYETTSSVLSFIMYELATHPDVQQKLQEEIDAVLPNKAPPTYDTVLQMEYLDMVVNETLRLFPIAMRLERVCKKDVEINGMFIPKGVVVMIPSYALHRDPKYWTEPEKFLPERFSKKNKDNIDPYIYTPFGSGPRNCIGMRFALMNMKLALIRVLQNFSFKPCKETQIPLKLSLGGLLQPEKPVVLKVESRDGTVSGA
TEST_METHOD_NOTES: Inhibition of CYP3A4T in human liver microsomes using testosterone as substrate incubated for 15 to 40 mins in presence of NADPH
Assay type: ADME, Microsome
MEASURED_PARAMETER: IC50

Value wanted: IC50 (Cytochrome P450 3A4 (Homo sapiens, UniProt P08684)) of entry Cc1c(C(C#N)c2c(F)cccc2F)nc(SC(C)C)[nH]c1=O (stereo unspecified)
> 50 µM

----------
TEST_METHOD_NOTES: AUC (0 to t) in Sprague-Dawley rat at 10 mg/kg,po measured upto 24 hrs by LC-MS/MS analysis
Assay type: ADME, organism-based
Set-up: dose 10 mg/kg, time < 24 hrs, route po
TEST_SETTINGS: in vivo
MEASURED_PARAMETER: AUC(0-t) at 24 h (µg·h/mL)
Give the number; µg·h/mL is assumed, so skip it.

So what's the measured AUC(0-t) at 24 h for this one? Cc1c(C(C#N)c2c(F)cccc2F)nc(SC(C)C)[nH]c1=O (stereo unspecified)
133

----------
Test system: Human immunodeficiency virus 1
TEST_METHOD_NOTES: Antiviral activity against drug-resistant HIV-1 Y188L mutant infected in human MT4 cells assessed as reduction in virus-induced cytopathic effect incubated for 5 days by MTT assay
Assay type: functional, organism-based
TEST_SETTINGS: Human immunodeficiency virus 1, Y188L mutant, MT4, 120 h
MEASURED_PARAMETER: EC50

Recorded results for 4 compounds are shown here.
Cc1ccc(C(C#N)c2nc(SC(C)C)[nH]c(=O)c2C)cc1 (configuration not stated)    > 12.9 µM
Cc1c(C(C#N)c2cccc(Br)c2)nc(SC(C)C)[nH]c1=O (configuration not stated)    > 125 µM
Cc1c(C(C#N)c2ccccc2Cl)nc(SC(C)C)[nH]c1=O (configuration not stated)    54.9 µM
Cc1c(C(C#N)c2cccnc2)nc(SC(C)C)[nH]c1=O (configuration not stated)    > 363 µM

Would you kindly share the measured EC50 for COc1ccccc1C(C#N)c1nc(SC(C)C)[nH]c(=O)c1C (configuration not stated) ?
27.5 µM

Also Cc1c(C(C#N)c2cccc3c2OCO3)nc(SC(C)C)[nH]c1=O (configuration not stated) , if possible.
> 96.5 µM

Record: Cc1c(C(C#N)c2ccc(C(F)(F)F)cc2)nc(SC(C)C)[nH]c1=O (configuration not stated)
> 39.8 µM

Please do the same for Cc1c(C(C#N)c2cc(Cl)cc(Cl)c2)nc(SC(C)C)[nH]c1=O (configuration not stated) as well.
> 28.9 µM

# iterate: Cc1c(C(C#N)c2cc(F)cc(F)c2)nc(SC(C)C)[nH]c1=O (configuration not stated)
> 202 µM

----------
TEST_METHOD_NOTES: Tmax in Sprague-Dawley rat at 1 mg/kg,iv measured upto 24 hrs by LC-MS/MS analysis
Format: ADME, organism-based
TEST_SETTINGS: in vivo
MEASURED_PARAMETER: Tmax (min)
Numeric answer only, unit min assumed.

// Tmax lookup, key: Cc1c(C(C#N)c2c(F)cccc2F)nc(SC(C)C)[nH]c1=O (stereo unspecified)
4.8

----------
TEST_METHOD_NOTES: Fold resistance, ratio of EC50 for antiviral activity against drug-resistant HIV-1 E138K mutant infected in human MT4 cells to EC50 for antiviral activity against […] HIV-1 infected in human MT4 cells
Assay type: functional
Some compounds, each annotated with its measured Ratio EC50.
Answer using only a numeral; do not append any unit.

Consider the reported Ratio EC50 for these compounds:
Cc1c(C(C#N)c2cc(F)cc(F)c2)nc(SC(C)C)[nH]c1=O (stereo unspecified)    4
Cc1c(C(C#N)c2cccc(C(F)(F)F)c2)nc(SC(C)C)[nH]c1=O (stereo unspecified)    3
COc1ccc(C(C#N)c2nc(SC(C)C)[nH]c(=O)c2C)cc1 (stereo unspecified)    1
Cc1c(C(C#N)c2cc(Cl)cc(Cl)c2)nc(SC(C)C)[nH]c1=O (stereo unspecified)    6

Suppose we examine the compound COc1cc(F)cc(C(C#N)c2nc(SC(C)C)[nH]c(=O)c2C)c1 (stereo unspecified) ; what Ratio EC50 value has been reported?
3
